- Test system: Staphylococcus aureus
- experiment: Antibacterial activity against methicillin-resistant Staphylococcus aureus SA88 by broth microdilution method
- Type: functional
Exercise: for every item that follows, state its recorded MIC.
Field: numeric (µg/mL). Do not append units.

Reported Staphylococcus aureus MIC for item CCCCCCCCCC(=O)N[C@@H](Cc1c[nH]c2ccccc12)C(=O)N[C@H](CC(N)=O)C(=O)N[C@@H](CC(=O)O)C(=O)N[C@@H]1C(=O)NCC(=O)N[C@@H](CCCN)C(=O)N[C@@H](CC(=O)O)C(=O)N[C@H](C)C(=O)N[C@@H](CC(=O)O)C(=O)NCC(=O)N[C@H](CO)C(=O)N[C@@H]([C@H](C)CC(=O)O)C(=O)N[C@@H](CC(=O)c2ccccc2NC)C(=O)O[C@@H]1C was 0.25

Bench note, Staphylococcus aureus: CCCCCCCCCC(=O)N[C@@H](Cc1c[nH]c2ccccc12)C(=O)N[C@@H](CC(N)=O)C(=O)N[C@@H](CC(=O)O)C(=O)N[C@@H]1C(=O)N(C)CC(=O)N[C@@H](CCCN)C(=O)N[C@@H](CC(=O)O)C(=O)N[C@H](C)C(=O)N[C@@H](CC(=O)O)C(=O)NCC(=O)N[C@H](CO)C(=O)N[C@@H]([C@H](C)CC(=O)O)C(=O)N[C@@H](CC(=O)c2ccccc2N)C(=O)O[C@@H]1C , MIC reads 0.5

Staphylococcus aureus data for CCCCCCCCCC(=O)N[C@@H](Cc1cn(C)c2ccccc12)C(=O)N[C@@H](CC(N)=O)C(=O)N[C@@H](CC(=O)O)C(=O)N[C@@H]1C(=O)NCC(=O)N[C@@H](CCCN)C(=O)N[C@@H](CC(=O)O)C(=O)N[C@H](C)C(=O)N[C@@H](CC(=O)O)C(=O)NCC(=O)N[C@H](CO)C(=O)N[C@@H]([C@H](C)CC(=O)O)C(=O)N[C@@H](CC(=O)c2ccccc2N)C(=O)O[C@@H]1C ; its MIC: 0.25

Entry CCCCCCCCCC(=O)N[C@@H](Cc1c[nH]c2ccccc12)C(=O)N[C@H](CC(N)=O)C(=O)N[C@@H](CC(=O)O)C(=O)N[C@@H]1C(=O)NCC(=O)N[C@@H](CCCN)C(=O)N[C@@H](CC(=O)O)C(=O)N[C@H](C)C(=O)N[C@@H](CC(=O)O)C(=O)NCC(=O)N[C@H](CO)C(=O)N[C@@H]([C@@H](C)CC(=O)O)C(=O)N[C@@H](CC(=O)c2ccccc2N)C(=O)O[C@@H]1C ; assay system Staphylococcus aureus; MIC recorded at 0.5

====

- System: Enterococcus faecium
- experiment: Antibacterial activity against Enterococcus faecium ET60 by broth microdilution method
- Format: functional
Can you tell me MIC for the items I'm about to list?

# MIC of CCCCCCCCCC(=O)N[C@@H](Cc1cn(C)c2ccccc12)C(=O)N[C@@H](CC(N)=O)C(=O)N[C@@H](CC(=O)O)C(=O)N[C@@H]1C(=O)NCC(=O)N[C@@H](CCCN)C(=O)N[C@@H](CC(=O)O)C(=O)N[C@H](C)C(=O)N[C@@H](CC(=O)O)C(=O)NCC(=O)N[C@H](CO)C(=O)N[C@@H]([C@H](C)CC(=O)O)C(=O)N[C@@H](CC(=O)c2ccccc2N)C(=O)O[C@@H]1C = 1 µg/mL

Sample CCCCCCCCCC(=O)N[C@@H](Cc1c[nH]c2ccccc12)C(=O)N[C@H](CC(N)=O)C(=O)N[C@@H](CC(=O)O)C(=O)N[C@@H]1C(=O)NCC(=O)N[C@@H](CCCN)C(=O)N[C@@H](CC(=O)O)C(=O)N[C@H](C)C(=O)N[C@@H](CC(=O)O)C(=O)NCC(=O)N[C@H](CO)C(=O)N[C@@H]([C@@H](C)CC(=O)O)C(=O)N[C@@H](CC(=O)c2ccccc2N)C(=O)O[C@@H]1C ; MIC observed: 2 µg/mL

The recorded MIC for CCCCCCCCCC(=O)N[C@@H](Cc1c[nH]c2ccccc12)C(=O)N[C@H](CC(N)=O)C(=O)N[C@@H](CC(=O)O)C(=O)N[C@@H]1C(=O)NCC(=O)N[C@@H](CCCN)C(=O)N[C@@H](CC(=O)O)C(=O)N[C@H](C)C(=O)N[C@@H](CC(=O)O)C(=O)NCC(=O)N[C@H](CO)C(=O)N[C@@H]([C@H](C)CC(=O)O)C(=O)N[C@@H](CC(=O)c2ccccc2NC)C(=O)O[C@@H]1C is 1 µg/mL

Given item CCCCCCCCCC(=O)N[C@@H](Cc1c[nH]c2ccccc12)C(=O)N[C@@H](CC(N)=O)C(=O)N[C@@H](CC(=O)O)C(=O)N[C@@H]1C(=O)N(C)CC(=O)N[C@@H](CCCN)C(=O)N[C@@H](CC(=O)O)C(=O)N[C@H](C)C(=O)N[C@@H](CC(=O)O)C(=O)NCC(=O)N[C@H](CO)C(=O)N[C@@H]([C@H](C)CC(=O)O)C(=O)N[C@@H](CC(=O)c2ccccc2N)C(=O)O[C@@H]1C , the value recorded as its MIC is 4 µg/mL
